# Tested on: carbapenemase producing K. pneumoniae
# Test Summary: MIC by broth micro-dilution (CLSI), carbapenemase producing K. pneumoniae
# Type: cell-based, Klebsiella pneumoniae
# Measurement Parameters: Klebsiella pneumoniae, ATCCBAA1705, KPC-2 K. pneumoniae ATCC BAA-1705; read-out: MIC
Measured Attribute: MIC (µg/mL)
Field format: number, assumed µg/mL, no unit text.

# Compound, Unit Symbol, Recorded Value
rows = [
    ("C[C@@H](NC(=O)Cn1cnnn1)[C@H]1C(=O)N2C(C(=O)O)=C(S[C@@H]3CN[C@H](C(=O)N4CC[C@H](NC(=N)N)C4)C3)[C@H](C)[C@H]12", "µg/mL", 2),
    ("C[C@@H](NC(=O)Cn1cnnn1)[C@H]1C(=O)N2C(C(=O)O)=C(S[C@@H]3CN[C@H](C(=O)N4CCC5CNCCC54)C3)[C@H](C)[C@H]12 (single isomer, unassigned)", "µg/mL", 1),
    ("C[C@@H](NC(=O)C(C)(C)n1cnnn1)[C@H]1C(=O)N2C(C(=O)O)=C(S[C@@H]3CN[C@H](C(=O)N(C)C)C3)[C@H](C)[C@H]12", "µg/mL", 128),
    ("C[C@@H](NC(=O)CN1CCC2CNCCC21)[C@H]1C(=O)N2C(C(=O)O)=C(S[C@@H]3CN[C@H](C(=O)N(C)C)C3)[C@H](C)[C@H]12 (single isomer, unassigned)", "µg/mL", 16),
]

Proceeding to the next compound to report its MIC.
[in] Please tell me: MIC of C[C@@H](NC(=O)CSc1nnnn1C)[C@H]1C(=O)N2C(C(=O)O)=C(S[C@@H]3CN[C@H](C(=O)N(C)C)C3)[C@H](C)[C@H]12 , system carbapenemase producing K. pneumoniae?
[out] 8

These data points were gathered from patent US11180504B2.
